- studySystem: Insulin-like growth factor 2 receptor (IGF-1IR, cation-independent mannose-6-phosphate receptor, CI-MPR; hIGF-IIR) (Homo sapiens)
- Sequence (P11717 whole entry, looked up): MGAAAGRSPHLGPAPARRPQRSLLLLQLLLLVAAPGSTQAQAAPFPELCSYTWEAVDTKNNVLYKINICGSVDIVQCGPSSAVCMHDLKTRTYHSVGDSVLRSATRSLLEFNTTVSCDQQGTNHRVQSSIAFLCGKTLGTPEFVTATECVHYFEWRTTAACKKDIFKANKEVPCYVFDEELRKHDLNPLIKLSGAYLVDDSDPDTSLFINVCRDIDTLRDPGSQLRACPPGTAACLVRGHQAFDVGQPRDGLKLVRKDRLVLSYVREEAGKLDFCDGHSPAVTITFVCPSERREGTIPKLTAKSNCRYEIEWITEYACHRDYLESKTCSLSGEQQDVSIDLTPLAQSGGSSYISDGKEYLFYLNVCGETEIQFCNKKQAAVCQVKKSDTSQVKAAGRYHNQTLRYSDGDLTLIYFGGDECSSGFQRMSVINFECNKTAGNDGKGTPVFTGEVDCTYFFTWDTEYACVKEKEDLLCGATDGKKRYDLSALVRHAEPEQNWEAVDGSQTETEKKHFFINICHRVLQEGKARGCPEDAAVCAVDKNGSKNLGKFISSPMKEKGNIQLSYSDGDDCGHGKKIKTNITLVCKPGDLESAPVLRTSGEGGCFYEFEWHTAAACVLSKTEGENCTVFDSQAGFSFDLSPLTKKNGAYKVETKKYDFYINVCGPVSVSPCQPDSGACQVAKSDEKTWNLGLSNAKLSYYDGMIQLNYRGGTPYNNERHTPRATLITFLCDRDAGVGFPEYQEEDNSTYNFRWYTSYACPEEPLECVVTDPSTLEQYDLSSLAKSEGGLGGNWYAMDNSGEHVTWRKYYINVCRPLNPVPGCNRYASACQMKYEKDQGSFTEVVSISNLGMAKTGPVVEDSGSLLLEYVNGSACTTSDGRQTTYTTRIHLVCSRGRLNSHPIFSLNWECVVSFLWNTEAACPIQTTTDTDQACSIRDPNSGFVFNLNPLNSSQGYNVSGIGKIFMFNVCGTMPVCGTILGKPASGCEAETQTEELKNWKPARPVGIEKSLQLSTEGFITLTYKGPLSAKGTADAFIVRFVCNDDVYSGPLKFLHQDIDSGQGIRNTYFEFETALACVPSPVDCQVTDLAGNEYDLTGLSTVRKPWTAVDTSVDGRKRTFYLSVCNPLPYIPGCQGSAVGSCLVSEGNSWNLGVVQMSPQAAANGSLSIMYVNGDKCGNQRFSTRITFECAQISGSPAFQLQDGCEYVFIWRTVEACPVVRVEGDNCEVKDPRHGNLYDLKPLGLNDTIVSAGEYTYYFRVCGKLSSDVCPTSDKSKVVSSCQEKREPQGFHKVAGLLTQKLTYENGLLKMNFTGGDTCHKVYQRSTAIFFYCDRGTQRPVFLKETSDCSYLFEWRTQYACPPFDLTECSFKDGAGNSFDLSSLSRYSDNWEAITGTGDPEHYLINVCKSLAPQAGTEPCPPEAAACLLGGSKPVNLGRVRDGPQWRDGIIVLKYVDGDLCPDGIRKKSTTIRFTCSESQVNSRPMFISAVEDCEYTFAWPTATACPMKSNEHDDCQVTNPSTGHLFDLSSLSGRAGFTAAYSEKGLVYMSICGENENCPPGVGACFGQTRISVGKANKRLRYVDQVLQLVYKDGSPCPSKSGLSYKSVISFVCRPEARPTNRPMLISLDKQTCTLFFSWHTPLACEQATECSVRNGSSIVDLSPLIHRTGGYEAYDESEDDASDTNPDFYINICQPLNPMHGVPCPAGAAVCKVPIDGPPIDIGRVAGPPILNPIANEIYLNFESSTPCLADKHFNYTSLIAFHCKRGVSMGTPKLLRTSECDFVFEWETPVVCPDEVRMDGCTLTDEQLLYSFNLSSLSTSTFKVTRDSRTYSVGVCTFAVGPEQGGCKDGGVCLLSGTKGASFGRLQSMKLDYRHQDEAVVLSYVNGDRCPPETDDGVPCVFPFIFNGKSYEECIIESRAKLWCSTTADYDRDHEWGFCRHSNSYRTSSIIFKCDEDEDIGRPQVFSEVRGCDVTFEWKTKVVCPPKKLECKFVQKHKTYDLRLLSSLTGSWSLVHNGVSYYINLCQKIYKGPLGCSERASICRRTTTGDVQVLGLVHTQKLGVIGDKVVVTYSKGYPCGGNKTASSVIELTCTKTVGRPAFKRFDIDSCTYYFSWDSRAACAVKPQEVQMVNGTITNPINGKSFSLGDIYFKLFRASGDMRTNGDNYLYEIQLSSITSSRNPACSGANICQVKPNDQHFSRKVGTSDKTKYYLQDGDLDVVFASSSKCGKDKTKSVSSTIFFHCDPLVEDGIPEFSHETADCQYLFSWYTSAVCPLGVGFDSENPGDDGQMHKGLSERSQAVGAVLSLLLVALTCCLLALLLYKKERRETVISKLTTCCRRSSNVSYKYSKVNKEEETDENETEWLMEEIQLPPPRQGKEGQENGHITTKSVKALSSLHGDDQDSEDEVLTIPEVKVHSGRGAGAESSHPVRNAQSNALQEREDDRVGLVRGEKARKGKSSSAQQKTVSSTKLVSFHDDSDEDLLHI
- assay: Binding affinity to CI-M6PR
observationType: IC50 (µM)

CO[C@H]1O[C@H](/C=C/P(=O)([O-])[O-])[C@@H](O)[C@H](O)[C@@H]1O.[Na+].[Na+]    22

P: CO[C@H]1O[C@H](CCS(=O)(=O)[O-])[C@@H](O)[C@H](O)[C@@H]1O.[Na+]
Q: CO[C@H]1O[C@H](/C=C/S(=O)(=O)[O-])[C@@H](O)[C@H](O)[C@@H]1O.[Na+]
R: O=P(O)(O)OC[C@H]1OC(O)[C@@H](O)[C@@H](O)[C@@H]1O (some centres undefined)
Q: Sort the 3 compounds by IC50; largest first, smallest last. Would you mind listing the labels in the order requested?
Result: P, Q, R
